test system: HCT-116; test: NCI tumour cell line growth inhibition, 48 h
The source made the active and inactive calls. Rule as the data show it: active = GI50 up to about 1.1 µM and inactive = higher. Residues, ends and D or L forms follow the SMILES beside them. *: point of attachment. Boc = CC(C)(C)OC(=O)*; OBn = c1ccc(CO*)cc1
# GI50 annotations

Example molecules with recorded GI50:
INSERT INTO results (molecule, value) VALUES
  ('C=C(Cl)C(C)(Cl)CCC(Cl)C(C)C (stereo not given)', '> 100 µM (inactive)'),
  ('CC1=C(Oc2ccccc2)C(CCC(=O)O)c2c(O)cc(Cl)c(O)c21 (stereo not given)', '> 100 µM (inactive)'),
  ('Cc1c(-c2ccccc2)c(-c2ccc(OCCN(C)C)cc2)n2ccccc12', '5.61 µM (inactive)'),
  ('COCOCCC#CCO', '88.9 µM (inactive)'),
  ('Cc1ccc2c(=O)c(-c3nnc(N)s3)c[nH]c2n1', '> 100 µM (inactive)'),
  ('CC1=NN(c2cccc(Cl)c2)C(=N/c2nc3ccccc3s2)/C1=C\c1ccc(Cl)cc1', '16.9 µM (inactive)'),
  ('O=C(CO[N+](=O)[O-])OCC(=O)c1ccccc1', '> 100 µM (inactive)'),
  ('O=C1c2ccccc2S(=O)(=O)c2cc(-c3nn[nH]n3)ccc21 [DOXANTRAZOLE]', '> 100 µM (inactive)'),
  ('CC(C)CC(NC(=O)OC(C)(C)C)C(=O)NC(CC(=O)OCc1ccccc1)C(=O)OCc1ccccc1 (stereo not drawn) (Boc-Leu-Asp(OBn)-OBn; configuration not given here)', '30.7 µM (inactive)'),
  ('CC(C)(C)c1cc(Oc2ccc(C#N)c(C#N)c2)cc(C(C)(C)C)c1', '68.1 µM (inactive)');

Asked: Please look up its GI50: CCOC(=O)CCC(NC(=O)OCc1ccccc1)C(=O)NC(CCC(=O)OCC)C(=O)NC(CCC(=O)OCC)C(=O)NC(CCC(=O)OCC)C(=O)NC(CCC(=O)OCC)C(=O)NC(CCC(=O)OCC)C(=O)NC(CCC(=O)OCC)C(=O)OCC (stereo not given)
Given back: > 100 µM (inactive)

Asked: Can you handle COc1cc(/C=C/C(=N\NC(N)=S)c2sc(NNC(C)=O)nc2C)ccc1O next?
Given back: > 100 µM (inactive)

Asked: Similarly, c1ccc2c(c1)CCCc1cc3ccccc3nc1-2 ?
Given back: > 100 µM (inactive)

Asked: What do you have for COC(=O)CCc1ccc(CCC(=O)OC)cc1 ?
Given back: > 100 µM (inactive)

Asked: Moving on to CN(C)CCCn1c(Cn2nc3ccccc3n2)nc2cc(C(F)(F)F)ccc21
Given back: 36 µM (inactive)

Asked: Also need O=C1CC(=O)NC(NN2C(=O)/C(=C/c3ccc(Cl)cc3)N=C2c2ccccc2)=N1 , thanks.
Given back: 15.8 µM (inactive)

Asked: Same for CC(C)C1CO[C@]2(C)CCC(=O)N12 (stereo not given in full)
Given back: > 100 µM (inactive)

Asked: Please do the same for Cc1cccc(-c2nc(-c3cnccn3)n(Cc3ccccc3)n2)c1 as well.
Given back: > 100 µM (inactive)

Asked: Then this molecule: C/C(=N\NS(=O)(=O)c1ccc(C)cc1)C(CN1CCOCC1)C(c1ccccc1)c1c(O)c2ccccc2oc1=O (stereo not given)
Given back: > 100 µM (inactive)

Asked: And O=C1C2C3C=CC(C2C(=O)N1CN1CCSCC1)C1C2C(=O)N(CN4CCSCC4)C(=O)C2C31 (stereo not given) ?
Given back: > 41.2 µM (inactive)

All values here come from ChEMBL document CHEMBL1201862.
